Where do the numbers come from? From patent US20230416363A1.

Known kon of a selection of binders
Target: T1, mPD-1-Fc (mouse; human, UniProt Q02242 25-167, limits assumed)
T1 construct: domain: IgV domain; not shown: human IgG1 Fc
T1 sequence (looked up): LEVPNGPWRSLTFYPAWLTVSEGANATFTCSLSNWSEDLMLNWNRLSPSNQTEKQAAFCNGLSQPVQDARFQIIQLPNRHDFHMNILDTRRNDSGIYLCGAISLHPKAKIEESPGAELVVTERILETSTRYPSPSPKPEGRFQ
Experiment: SPR Biacore, mPD1-Fc
Report the figure along with its unit, number first.

- binder: "R3A9 (antibody, V domains shown, also called 7115A; mPD1 parental (R3A9)) VH: QVQLVQSGAEVKKPGASVKVSCKASGHTFTSYYIHWVRQAPGQGLEWMGIINPSGGSTSYAQKFQGRVTMTRDTSTSTVYMELSSLRSEDTAVYYCARDRAYGGAGDYWGQGTLVTVSS VL: DIQMTQSPSSLSASVGDRVTITCRASQSVGTWLAWYQQKPGKAPKLLIYSASTLQSGVPSRFSGSGSGTDFTLTISSLQPEDFATYYCQQSYSAPLTFGGGTKVEIK"
  kon: "116000 M⁻¹ s⁻¹"
- binder: "m2C1 (antibody, V domains shown, R3A9 derivative; also called m3CM (apparent misprint)) VH: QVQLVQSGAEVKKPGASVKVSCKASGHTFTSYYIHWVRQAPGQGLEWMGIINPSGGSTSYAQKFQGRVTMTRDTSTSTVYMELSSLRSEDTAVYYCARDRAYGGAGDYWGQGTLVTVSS VL: DIQMTQSPSSLSASVGDRVTITCRASRSISSWLAWYQQKPGKAPKLLIYAASSLQSGVPSRFSGSGSGTDFTLTISSLQPEDFATYYCQQSYSIPATFGQGTKVEIK"
  kon: "200000 M⁻¹ s⁻¹"
- binder: "m3A7 (antibody, V domains shown, R3A9 derivative; also called 7115C) VH: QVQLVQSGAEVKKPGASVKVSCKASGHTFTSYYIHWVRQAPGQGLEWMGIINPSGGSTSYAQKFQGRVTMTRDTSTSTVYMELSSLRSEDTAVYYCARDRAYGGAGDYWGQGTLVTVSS VL: DIQMTQSPSSLSASVGDRVTITCRASRSISNWLAWYQQKPGKAPKLLIYAASSLQSGVPSRFSGSGSGTDFTLTISSLQPEDFATYYCQQSYSAPVTFGQGTKVEIK"
  kon: "261000 M⁻¹ s⁻¹"
- binder: "m2A1 (antibody, V domains shown, R3A9 derivative; also called m2AM (apparent misprint)) VH: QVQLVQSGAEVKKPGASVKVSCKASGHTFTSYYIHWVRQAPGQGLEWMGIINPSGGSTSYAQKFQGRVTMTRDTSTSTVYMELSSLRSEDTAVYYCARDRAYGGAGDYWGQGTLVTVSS VL: DIQMTQSPSSLSASVGDRVTITCRASRGISSWLAWYQQKPGKAPKLLIYAASSLQSGVPSRFSGSGSGTDFTLTISSLQPEDFATYYCQQSYSPPWTFGQGTKVEIK"
  kon: "333000 M⁻¹ s⁻¹"

Moving on to another binder below.
Entry under test: m4D1 (antibody, V domains shown, R3A9 derivative) VH: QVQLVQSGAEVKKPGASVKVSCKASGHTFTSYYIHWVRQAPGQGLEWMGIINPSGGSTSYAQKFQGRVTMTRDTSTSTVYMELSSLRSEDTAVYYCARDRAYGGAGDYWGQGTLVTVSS VL: DIQMTQSPSSLSASVGDRVTITCRASQSISAWLAWYQQKPGKAPKLLIYKASSLESGVPSRFSGSGSGTDFTLTISSLQPEDFATYYCQQSYSPPATFGGGTKVEIK . Its kon was 66300 M⁻¹ s⁻¹
